Target: human norepinephrine transporter (NET) (Homo sapiens, UniProt P23975)
Sequence (P23975 whole entry): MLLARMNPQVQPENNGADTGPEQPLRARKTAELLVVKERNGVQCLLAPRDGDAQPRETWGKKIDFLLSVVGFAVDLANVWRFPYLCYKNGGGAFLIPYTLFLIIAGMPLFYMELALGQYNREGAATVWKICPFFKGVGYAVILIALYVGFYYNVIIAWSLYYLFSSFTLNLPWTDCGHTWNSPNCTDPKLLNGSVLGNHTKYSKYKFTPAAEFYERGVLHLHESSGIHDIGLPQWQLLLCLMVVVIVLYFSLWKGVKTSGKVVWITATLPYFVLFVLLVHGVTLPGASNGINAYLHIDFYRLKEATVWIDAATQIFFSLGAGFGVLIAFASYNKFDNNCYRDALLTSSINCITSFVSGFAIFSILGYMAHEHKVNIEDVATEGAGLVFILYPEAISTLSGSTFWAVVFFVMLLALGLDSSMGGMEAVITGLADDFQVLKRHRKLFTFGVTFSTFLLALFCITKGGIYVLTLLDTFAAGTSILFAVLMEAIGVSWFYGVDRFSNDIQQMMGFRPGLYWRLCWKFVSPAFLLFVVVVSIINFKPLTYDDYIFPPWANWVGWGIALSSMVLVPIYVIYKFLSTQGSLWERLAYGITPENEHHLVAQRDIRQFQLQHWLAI
Test: Binding assay to human norepinephrine transporter (NET) ([3H]-Nisoxetin)
Conditions: [3H]-Nisoxetin 5 nM, human NET enriched membranes
Measured Ki values are reported for all entries that follow.

ITEM SMILES	Ki
CNCC[C@H](Oc1ccc(CN2CCN(C)c3nc(N)ncc3C2=O)c(Cl)c1)c1ccccc1	< 100 nM
CNCC[C@H](Oc1ccc(CN2CCN(C)c3cc(OC)ncc3C2=O)c(F)c1)c1ccccc1	100 to 500 nM

**Query** Dear colleague, I am looking for the recorded Ki of the following molecule: `CNCC[C@H](Oc1ccc(CN2CCN(C)c3nc(OC)ncc3C2=O)c(C)c1)c1ccccc1`
**Result** < 100 nM

**Query** Similarly, `CNCC[C@H](Oc1ccc(CN2CCN(C)c3nc(OC)ncc3C2=O)c(F)c1)c1ccccc1` ?
**Result** 100 to 500 nM

**Query** Next: `CCNc1ncc2c(n1)N(C)CCN(Cc1ccc(O[C@@H](CCNC)c3ccccc3)cc1Cl)C2=O`
**Result** 100 to 500 nM

**Query** And what about the molecule `CNCC[C@H](Oc1ccc(CN2CCN(C)c3ccncc3C2=O)c(C)c1)c1ccccc1` ?
**Result** 100 to 500 nM

**Query** Another molecule to look at: `CNCC[C@H](Oc1ccc(CN2CCN(C)c3nc(N)ncc3C2=O)c(F)c1)c1ccccc1`
**Result** 100 to 500 nM

**Query** Same thing, different molecule: `CNCC[C@H](Oc1cnc(CN2CCN(C)c3cc(OC)ncc3C2=O)c(F)c1)c1cccs1`
**Result** < 100 nM

**Query** And the next one, `CNCC[C@H](Oc1cnc(CN2CCN(C)c3nc(N)ncc3C2=O)c(F)c1)c1cccc(F)c1` ?
**Result** < 100 nM

**Query** Same question for `CNCC[C@H](Oc1ccc(CN2CCN(C)c3ncncc3C2=O)c(C)c1)c1ccccc1` please.
**Result** < 100 nM

**Query** How about `CCNc1ncc2c(n1)N(C)CCN(Cc1ccc(O[C@@H](CCNC)c3cccc(F)c3)cc1F)C2=O` ?
**Result** 100 to 500 nM

**Query** And `CNCC[C@H](Oc1ccc(CN2CCN(C)c3ncncc3C2=O)c(F)c1)c1ccccc1` ?
**Result** < 100 nM

**Query** Query `CCNc1ncc2c(n1)N(C)CCN(Cc1ncc(O[C@@H](CCNC)c3cccc(F)c3)cc1F)C2=O` next
**Result** 100 to 500 nM

**Query** Another: `CNCC[C@H](Oc1ccc(CN2CCN(C)c3ccncc3C2=O)c(F)c1)c1ccccc1`
**Result** 100 to 500 nM

**Query** Follow-up entry: `CCNc1ncc2c(n1)N(C)CCN(Cc1ccc(O[C@H](CCNC)c3cccc(F)c3)cc1F)C2=O`
**Result** 500 to 1000 nM
